All values here come from patent US20190153108A1.

- test.target: human Epidermal Growth Factor Receptor (huEGFR) over-expressed in mcl-1-/- mouse embryonic fibroblasts (human, UniProt P00533 25-1210)
- experimental.protocol: cell-based or functional assay
Each item that follows carries a reported huEGFR^+ mcl-1^-/- MEF EC50.
Respond numerically; units are nM and should not be typed.

* AbB-TX (antibody, V domains shown, synthon TX on reduced interchain Cys) VH: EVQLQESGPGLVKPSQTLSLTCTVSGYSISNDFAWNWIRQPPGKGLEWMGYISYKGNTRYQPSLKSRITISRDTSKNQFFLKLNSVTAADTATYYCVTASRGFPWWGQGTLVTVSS VL: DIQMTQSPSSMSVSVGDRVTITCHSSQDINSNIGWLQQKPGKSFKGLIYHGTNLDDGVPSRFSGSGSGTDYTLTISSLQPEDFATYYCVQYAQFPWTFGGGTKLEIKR | 11

Consider now this further binder.
input: // huEGFR^+ mcl-1^-/- MEF EC50 lookup, key: AbA-XW (antibody, V domains shown, synthon XW on reduced interchain Cys) VH: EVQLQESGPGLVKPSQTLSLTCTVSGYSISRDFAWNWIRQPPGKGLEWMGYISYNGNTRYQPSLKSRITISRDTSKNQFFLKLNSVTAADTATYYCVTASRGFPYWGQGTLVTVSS VL: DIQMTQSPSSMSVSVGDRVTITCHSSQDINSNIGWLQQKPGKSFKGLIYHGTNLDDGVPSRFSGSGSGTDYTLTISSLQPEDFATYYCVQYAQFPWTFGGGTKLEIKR
output: 32
